- protocol-details: Clearance in iv dosed dog
- Format: ADME, organism-based, Canis lupus familiaris
- assay-conditions: in vivo
assay-endpoint: clearance (mL/min/kg)
One number for each entry, in mL/min/kg.

*Q* State its clearance: Cc1ccc(-n2nccn2)c(C(=O)N2C[C@H](C#Cc3ccc(F)cn3)CC[C@H]2C)c1
*A* 1.6

* * *

- protocol-details: Plasma concentration in mouse at 100 mg/kg, po
- Format: ADME, organism-based
- Design: dose 100 mg/kg, route oral
assay-endpoint: AUC

*Q* State its AUC: Cc1ccc(-n2nccn2)c(C(=O)N2C[C@H](C#Cc3ccc(F)cn3)CC[C@H]2C)c1
*A* 60 µM·h

* * *

Provide the recorded Ki for the entries that follow.
- tested-on: Orexin/Hypocretin receptor type 1 (Homo sapiens, UniProt O43613)
- Sequence (O43613 whole entry): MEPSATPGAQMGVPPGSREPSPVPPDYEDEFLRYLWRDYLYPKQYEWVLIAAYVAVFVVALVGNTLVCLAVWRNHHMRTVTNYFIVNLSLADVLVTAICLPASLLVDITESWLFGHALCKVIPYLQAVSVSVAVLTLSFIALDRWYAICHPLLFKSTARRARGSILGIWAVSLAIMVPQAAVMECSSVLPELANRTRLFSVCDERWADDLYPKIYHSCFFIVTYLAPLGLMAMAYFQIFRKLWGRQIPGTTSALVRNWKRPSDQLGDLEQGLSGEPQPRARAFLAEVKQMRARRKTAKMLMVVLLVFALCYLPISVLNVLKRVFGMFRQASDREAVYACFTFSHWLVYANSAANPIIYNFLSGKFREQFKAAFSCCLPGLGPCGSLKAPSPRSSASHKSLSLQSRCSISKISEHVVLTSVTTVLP
Give bare numbers, in nM.

*Q* State its Ki: Cc1ccc(-n2nccn2)c(C(=O)N2C[C@H](C#Cc3cncc(CO)c3)CC[C@H]2C)c1
*A* 108

*Q* State its Ki: Cc1ccc(-n2nccn2)c(C(=O)N2C[C@H](/C=C\c3ccc(F)cn3)CC[C@H]2C)c1
*A* 135

*Q* State its Ki: Cc1ccc(-n2nccn2)c(C(=O)N2C[C@H](C#Cc3ccc(CO)cn3)CC[C@H]2C)c1
*A* 211

*Q* State its Ki: Cc1ccc(-n2nccn2)c(C(=O)N2C[C@H](C#Cc3ccc(F)cn3)CC[C@H]2C)c1
*A* 1.1

*Q* State its Ki: Cc1ccc(-n2nccn2)c(C(=O)N2C[C@H](C#Cc3ccc(CO)nc3)CC[C@H]2C)c1
*A* 339

New cases:
*Q* State its Ki: Cc1ccc(-n2nccn2)c(C(=O)N2C[C@H](C#Cc3cccc(CO)c3)CC[C@H]2C)c1
*A* 0.56

* * *

- protocol-details: Half life in iv dosed dog
- Type: ADME, organism-based, Canis lupus familiaris
- assay-conditions: in vivo
assay-endpoint: half-life (h)
Numbers only, in h.

*Q* State its half-life: Cc1ccc(-n2nccn2)c(C(=O)N2C[C@H](C#Cc3ccc(F)cn3)CC[C@H]2C)c1
*A* 2

* * *

- tested-on: UniProt O43614
- Sequence (O43614 whole entry): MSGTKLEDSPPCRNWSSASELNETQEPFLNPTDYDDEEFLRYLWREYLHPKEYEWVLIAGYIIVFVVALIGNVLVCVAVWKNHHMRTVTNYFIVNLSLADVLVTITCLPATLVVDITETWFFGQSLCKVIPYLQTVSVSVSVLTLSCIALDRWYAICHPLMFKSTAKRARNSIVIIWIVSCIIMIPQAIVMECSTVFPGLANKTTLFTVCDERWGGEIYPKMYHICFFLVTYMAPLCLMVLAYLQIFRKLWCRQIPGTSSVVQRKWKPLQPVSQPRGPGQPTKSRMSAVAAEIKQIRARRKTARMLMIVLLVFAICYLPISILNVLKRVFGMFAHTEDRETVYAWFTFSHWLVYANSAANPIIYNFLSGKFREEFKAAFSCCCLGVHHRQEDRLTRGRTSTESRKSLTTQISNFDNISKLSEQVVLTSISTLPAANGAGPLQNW
- protocol-details: Antagonist activity at human OX2 receptor assessed as Ca2+ flux by FLIPR assay
assay-endpoint: log10(IC50) (log10 of the value in nM)
Quick note: numbers are log10 of IC50, with nM as the unit.

# annotated cases, reported log10(IC50) shown
*Q* Give UniProt O43614 log10(IC50) for the following compound: Cc1ccc(-n2nccn2)c(C(=O)N2C[C@H](C#Cc3cccc(CO)c3)CC[C@H]2C)c1
*A* 0.80

*Q* Give UniProt O43614 log10(IC50) for the following compound: Cc1ccc(-n2nccn2)c(C(=O)N2C[C@H](COc3ccc(F)cn3)CC[C@H]2C)c1
*A* 1.18

*Q* Give UniProt O43614 log10(IC50) for the following compound: Cc1ccc(-n2nccn2)c(C(=O)N2C[C@H](C#Cc3cccnc3)CC[C@H]2C)c1
*A* 1.45

# batch size: 2; output log10(IC50) per entry
1. Cc1ccc(-n2nccn2)c(C(=O)N2C[C@H](C#Cc3ccnc(CO)c3)CC[C@H]2C)c1
2. Cc1ccc(-n2nccn2)c(C(=O)N2C[C@H](C#Cc3cccc(CO)n3)CC[C@H]2C)c1

*A*
1. 2.00
2. 1.41

* * *

- protocol-details: Plasma protein binding in dog
- Assay type: ADME, cell-free, Canis lupus familiaris
- assay-conditions: read-out: PPB (converted)
assay-endpoint: fraction unbound
Answers are plain numbers.

*Q* State its fraction unbound: Cc1ccc(-n2nccn2)c(C(=O)N2C[C@H](C#Cc3ccc(F)cn3)CC[C@H]2C)c1
*A* 0.039

* * *

This section lists Ki readings for Orexin receptor type 2 (Homo sapiens, UniProt O43614).
Give the value; after it, write the unit.

# batch size: 2; output Ki per entry
1. Cc1ccc(-n2nccn2)c(C(=O)N2C[C@H](C#Cc3cccc(CO)n3)CC[C@H]2C)c1
2. Cc1ccc(-n2nccn2)c(C(=O)N2C[C@H](C#Cc3cc(CO)ccn3)CC[C@H]2C)c1

*A*
1. 5.6 nM
2. 42 nM

# batch size: 2; output Ki per entry
1. Cc1ccc(-n2nccn2)c(C(=O)N2C[C@H](C#Cc3cccnc3)CC[C@H]2C)c1
2. Cc1ccc(-n2nccn2)c(C(=O)N2C[C@H](CCc3ccc(F)cn3)CC[C@H]2C)c1

*A*
1: 41 nM; 2: 26 nM
